stability, mean ± SD (measured concentration) values for the molecules below.
assay: Stability of the five compounds in SD rat plasma (QC samples, UHPLC-ESI-MS/MS); type: in vitro ADME; conditions: SD rat plasma, nominal 1000 ng/mL, Room temperature 24h, n=5
Please give a number only; it is taken to be in ng/mL.

These recorded examples may help you get a feel for the data.
Lab note: measured stability, mean ± SD (measured concentration) of CC1=C[C@H]2[C@@H](CC1)[C@H](C)CC[C@H]2[C@@H](C)C(=O)O [DHAA, Dihydroartemisinic acid] was 960

Lab note: measured stability, mean ± SD (measured concentration) of C=C1CC[C@@H]2[C@H]3[C@@H](CC[C@H]2C)[C@@H](C)C(=O)O[C@H]13 [ARTI, Arteannuin I] was 1003

Lab note: measured stability, mean ± SD (measured concentration) of C=C(C(=O)O)[C@@H]1CC[C@@H](C)[C@@H]2CCC(C)=C[C@@H]21 [AA, Artemisinic acid] was 956

Attention now turns to another entry.
Lab note: measured stability, mean ± SD (measured concentration) of C[C@@H]1CC[C@H]2[C@@H](C)C(=O)O[C@@H]3O[C@@]4(C)CC[C@@H]1[C@]32O4 [DEART, Deoxyartemisinin] was 1093

Data origin: paper PMC12058161
